Tested on: 168753-222-R-J1-PDC complex spheroid viability;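 further: luminescence signal used as surrogate for viable cell amount; viability measured after seven days of drug exposure; 100% = DMSO vehicle control wells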
Experiment: Anticancer human tumor 168753-222-R-J1-PDC patient-derived bladder carcinoma cell line growth inhibition [CLK]
Details: second compound 1 µM; first compound 10 µM; stronger effect = lower value
// values below are reported viability, T/C
measurementKind: viability, T/C

| compound | measurementKind | measValue |
| --- | --- | --- |
| C#Cc1c(F)ccc2cc(O)cc(-c3ncc4c(N5CC6CCC(C5)N6)nc(OCC56CCCN5CC(F)C6)nc4c3F)c12 (stereo not given) + CNC(=O)c1ccc(Nc2nc(OC3CCCC3)c3c(-c4ccc5nc(C)oc5c4)c[nH]c3n2)c(OC)c1 | viability, T/C | 16.9% |
| CC(CO)NC(=O)c1cc(-c2ccc(Cl)cc2)nn(-c2cnn(C)c2)c1=O (stereo not given) + CN1CCN(c2cc(C(=O)Nc3cc4cc(-c5cnn(C)c5)ccc4cn3)ccn2)CC1 | viability, T/C | 3.13% |
| O=c1[nH]cc(F)c(=O)[nH]1 + CN1CCN(c2cc(C(=O)Nc3cc4cc(-c5cnn(C)c5)ccc4cn3)ccn2)CC1 | viability, T/C | 0.58% |
| Nc1ccn(C2OC(CO)C(O)C2(F)F)c(=O)n1 (stereo not given) + CNC(=O)c1ccc(Nc2nc(OC3CCCC3)c3c(-c4ccc5nc(C)oc5c4)c[nH]c3n2)c(OC)c1 | viability, T/C | 17.4% |
| O=c1[nH]cc(F)c(=O)[nH]1 + CNC(=O)c1ccc(Nc2nc(OC3CCCC3)c3c(-c4ccc5nc(C)oc5c4)c[nH]c3n2)c(OC)c1 | viability, T/C | 27.7% |
| C=CC(=O)N1CCN(c2nc(=O)n(-c3c(C)ccnc3C(C)C)c3nc(-c4c(O)cccc4F)c(F)cc23)C(C)C1 (stereo not given) + CN1CCN(c2cc(C(=O)Nc3cc4cc(-c5cnn(C)c5)ccc4cn3)ccn2)CC1 | viability, T/C | 0.2% |
| CC(Nc1ccc2c(c1)OCCn1cc(N3C(=O)OCC3C(F)F)nc1-2)C(N)=O (stereo not given) + CN1CCN(c2cc(C(=O)Nc3cc4cc(-c5cnn(C)c5)ccc4cn3)ccn2)CC1 | viability, T/C | 0.08% |
| C#Cc1c(F)ccc2cc(O)cc(-c3ncc4c(N5CC6CCC(C5)N6)nc(OCC56CCCN5CC(F)C6)nc4c3F)c12 (stereo not given) + CN1CCN(c2cc(C(=O)Nc3cc4cc(-c5cnn(C)c5)ccc4cn3)ccn2)CC1 | viability, T/C | 0.34% |
| COC1C=CCC(C)C(C)S(=O)(=O)NC(=O)c2ccc3c(c2)N(CC2CCC21)CC1(CCCc2cc(Cl)ccc21)CO3 (stereo not given) + CNC(=O)c1ccc(Nc2nc(OC3CCCC3)c3c(-c4ccc5nc(C)oc5c4)c[nH]c3n2)c(OC)c1 | viability, T/C | 9.33% |
| CC(=O)O[C@H]1C(=O)[C@@]2(C)[C@H]([C@H](OC(=O)c3ccccc3)[C@]3(O)C[C@H](OC(=O)[C@H](O)[C@@H](NC(=O)c4ccccc4)c4ccccc4)C(C)=C1C3(C)C)[C@]1(OC(C)=O)CO[C@@H]1C[C@@H]2O + CN1CCN(c2cc(C(=O)Nc3cc4cc(-c5cnn(C)c5)ccc4cn3)ccn2)CC1 | viability, T/C | 0.21% |
